Molecular target: Glutamate receptor ionotropic, kainate 2 (Rattus norvegicus)
Sequence (P42260 whole entry): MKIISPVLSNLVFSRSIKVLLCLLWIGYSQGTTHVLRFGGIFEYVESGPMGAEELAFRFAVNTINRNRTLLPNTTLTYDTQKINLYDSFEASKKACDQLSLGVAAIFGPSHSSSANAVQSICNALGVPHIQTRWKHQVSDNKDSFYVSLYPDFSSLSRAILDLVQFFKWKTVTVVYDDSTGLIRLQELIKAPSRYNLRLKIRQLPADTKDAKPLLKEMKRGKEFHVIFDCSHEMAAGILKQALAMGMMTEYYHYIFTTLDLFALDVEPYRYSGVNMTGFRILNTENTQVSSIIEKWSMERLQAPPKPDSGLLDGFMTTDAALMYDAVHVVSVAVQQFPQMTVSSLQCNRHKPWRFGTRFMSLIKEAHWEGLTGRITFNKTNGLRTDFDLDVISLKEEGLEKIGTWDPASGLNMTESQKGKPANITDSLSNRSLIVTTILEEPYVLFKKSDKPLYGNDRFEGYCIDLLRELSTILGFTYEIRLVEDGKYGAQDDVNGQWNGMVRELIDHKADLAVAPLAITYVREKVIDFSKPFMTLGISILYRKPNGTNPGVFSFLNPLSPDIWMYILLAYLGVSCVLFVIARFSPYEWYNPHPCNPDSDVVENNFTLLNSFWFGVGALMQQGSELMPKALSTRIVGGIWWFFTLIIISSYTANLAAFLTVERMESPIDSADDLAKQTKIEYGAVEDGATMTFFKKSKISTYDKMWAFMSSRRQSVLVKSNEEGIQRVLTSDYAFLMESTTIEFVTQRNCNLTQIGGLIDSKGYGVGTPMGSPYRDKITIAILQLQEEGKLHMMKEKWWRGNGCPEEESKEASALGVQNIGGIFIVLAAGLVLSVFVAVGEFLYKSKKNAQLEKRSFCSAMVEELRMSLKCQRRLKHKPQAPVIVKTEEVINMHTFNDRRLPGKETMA
Assay: Displacement of [3H]SYM2081 from rat iGluR6 receptor expressed in Sf9 cells baculovirus system after 1 to 2 hrs by liquid scintillation counting
Details: sf9
MEASURE NAME: Ki

Prompt: GET /values?readout=Ki&item= NC(Cc1nonc1O)C(=O)O (stereo in doubt; (-)-10)
Completion: > 100 µM

* * *

Target: Glutamate NMDA receptor; Grin1/Grin2a (Rattus norvegicus, UniProt P35439+Q00959)
Sequence (Q00959 whole entry, other chains not shown): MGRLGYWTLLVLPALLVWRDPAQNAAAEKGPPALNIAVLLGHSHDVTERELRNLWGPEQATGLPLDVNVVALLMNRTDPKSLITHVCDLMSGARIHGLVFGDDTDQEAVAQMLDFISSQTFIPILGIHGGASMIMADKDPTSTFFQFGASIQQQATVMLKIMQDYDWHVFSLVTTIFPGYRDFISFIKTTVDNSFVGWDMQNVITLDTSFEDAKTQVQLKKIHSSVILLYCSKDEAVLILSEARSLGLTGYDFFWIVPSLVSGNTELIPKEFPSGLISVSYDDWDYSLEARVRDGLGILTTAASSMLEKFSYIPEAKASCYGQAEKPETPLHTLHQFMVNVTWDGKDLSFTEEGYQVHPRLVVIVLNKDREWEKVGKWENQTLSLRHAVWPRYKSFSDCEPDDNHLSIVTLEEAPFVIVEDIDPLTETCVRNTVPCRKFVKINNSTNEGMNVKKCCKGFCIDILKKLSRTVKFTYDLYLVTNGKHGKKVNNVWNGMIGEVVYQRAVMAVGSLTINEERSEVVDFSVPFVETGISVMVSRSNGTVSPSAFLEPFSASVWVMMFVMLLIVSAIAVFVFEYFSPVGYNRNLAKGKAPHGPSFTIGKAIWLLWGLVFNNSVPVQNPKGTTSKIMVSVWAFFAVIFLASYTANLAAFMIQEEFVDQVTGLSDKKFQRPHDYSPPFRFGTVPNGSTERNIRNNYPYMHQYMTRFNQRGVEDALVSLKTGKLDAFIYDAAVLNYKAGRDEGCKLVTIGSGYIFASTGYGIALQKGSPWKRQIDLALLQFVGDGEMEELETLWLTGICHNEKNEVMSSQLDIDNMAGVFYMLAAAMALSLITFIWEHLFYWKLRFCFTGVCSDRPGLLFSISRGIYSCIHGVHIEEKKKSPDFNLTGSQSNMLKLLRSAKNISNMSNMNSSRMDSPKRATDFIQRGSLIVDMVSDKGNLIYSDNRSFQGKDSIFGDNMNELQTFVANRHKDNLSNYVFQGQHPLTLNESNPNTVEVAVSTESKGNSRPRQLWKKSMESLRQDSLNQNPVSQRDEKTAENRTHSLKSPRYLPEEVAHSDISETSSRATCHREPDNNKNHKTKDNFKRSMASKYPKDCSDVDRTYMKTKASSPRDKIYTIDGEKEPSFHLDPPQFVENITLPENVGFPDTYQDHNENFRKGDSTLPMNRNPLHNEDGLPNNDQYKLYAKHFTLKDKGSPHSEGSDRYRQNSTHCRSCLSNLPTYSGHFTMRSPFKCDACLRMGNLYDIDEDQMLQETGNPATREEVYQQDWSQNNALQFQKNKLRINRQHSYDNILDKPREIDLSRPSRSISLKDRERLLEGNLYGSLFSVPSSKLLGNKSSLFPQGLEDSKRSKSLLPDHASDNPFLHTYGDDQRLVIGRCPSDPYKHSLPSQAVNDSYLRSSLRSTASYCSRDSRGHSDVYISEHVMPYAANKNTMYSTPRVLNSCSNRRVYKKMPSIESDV
Test: Antagonist activity at rat NR1/NR2A receptor expressed in BHK21 cells assessed as inhibition of (S)-Glu-induced intracellular calcium levels by FLIPR assay
MEASURE NAME: pIC50
The quantity pIC50 is defined as the negative base-10 logarithm of the molar concentration.

Prompt: GET /values?readout=pIC50&item= NC(CCCc1nonc1O)C(=O)O (stereo in doubt; (+)-18)
Completion: 3.61

Prompt: GET /values?readout=pIC50&item= NC(CCCc1nonc1O)C(=O)O (stereo in doubt; (-)-18)
Completion: 4.55

Prompt: GET /values?readout=pIC50&item= NC(CCc1nonc1O)C(=O)O (single isomer, unassigned; (-))
Completion: 4.31

Prompt: GET /values?readout=pIC50&item= NC(CCc1nonc1O)C(=O)O (stereo in doubt; (+)-15)
Completion: 2.99
